Consider the following molecules; for each one, report its growth.
- Test system: UACC-62 melanoma
- ASSAY_SUMMARY: NCI-60 one-dose screen, 48 h (100 = growth as untreated, 0 = no growth, -100 = all killed)
- EXPERIMENTAL_CONDITIONS: 10 µM unless noted
About 83,000 compounds went through this panel and 20% of them were active in at least one assay; those are over-represented in the sample as a whole. Active and inactive are the calls of the source. How the source made its calls: active means growth percent below 10; inactive means the rest.

Recorded growth, per entry:
[[record]]
molecule = "CCCCCCCCOC(=O)CCN1CC1"
measured = "109% (inactive)"

[[record]]
molecule = "C[C@]12CC[C@@H]3c4ccc(Oc5nc(N6CC6)nc(N6CC6)n5)cc4CC[C@H]3[C@@H]1CCC2=O"
measured = "18.4% (inactive)"


Give measured growth for every item shown.
1. O=C1NC(=O)C(=Cc2cn(C(=O)c3ccccc3)c3ccccc23)C(=O)N1
2. COc1ccc(O)c(CNC(=O)CN2CCCC2=O)c1
3. CC1=C(O)[C@@](C)(CCCCC[C@H](C)CCCCc2ccc(O)cc2)OOC1=O
4. N#Cc1c(Br)n(C2OC(CO)C(O)C2O)c2ncnc(N)c12 (configuration not stated)
5. CC(C)OC(=O)[C@H](C)NP(=O)(Oc1ccccc1)C1CCCN(O)C1=O (some centres not stated)

1: 85.9% (inactive); 2: 96.6% (inactive); 3: 79.2% (inactive); 4: 77.9% (inactive); 5: 71.8% (inactive)

Please give growth, item by item, for the list that follows.
1. O=[N+]([O-])c1cnc[nH]1
2. CC(=O)O[C@H](C[C@H](C(C)C)N(C)C(=O)[C@@H](NC(=O)[C@H]1CCCCN1C)C(C)C)c1nc(C(=O)N[C@@H](Cc2ccccc2)C[C@H](C)C(=O)O)c(CCOCc2ccccc2)s1

1. 96.3% (inactive)
2. 27.1% (inactive)

* * *

- System: CCRF-CEM leukemia
- ASSAY_SUMMARY: NCI-60 one-dose screen, 48 h
- EXPERIMENTAL_CONDITIONS: 10 µM unless noted
Compounds without any hit were thinned out: in the full panel of roughly 83,000, 20% have a hit. Activity calls are given as the source filed them. How the source made its calls: active means growth percent below 10; inactive means the rest.
The categories you may choose from are T (active), F (inactive)

[[record]]
compound = "Clc1ccc2nnnn2n1"
label = "F"

[[record]]
compound = "COc1ccc(Nc2ccc([N+](=O)[O-])cc2[N+](=O)[O-])cc1CN(CCCl)CCCl"
label = "T"

[[record]]
compound = "COC(=O)[C@@H](C)C[C@H](Cc1ccccc1)NC(=O)c1csc([C@@H](C[C@H](C(C)C)N(C)C(=O)[C@@H](NC(=O)[C@H]2CCCCN2C)C2CCCCC2)OC(C)=O)n1"
label = "T"

[[record]]
compound = "Brc1ccc2c(c1)c(-c1nc(-c3c[nH]c4ncccc34)cs1)cn2CCN1CCCCC1"
label = "F"

[[record]]
compound = "N#Cc1c(Br)n(C2OC(CO)C(O)C2O)c2ncnc(N)c12 (configuration not stated)"
label = "T"


# lookup: test call for CC(=O)O[C@H](C[C@H](C(C)C)N(C)C(=O)[C@@H](NC(=O)[C@H]1CCCCN1C)C(C)C)c1nc(C(=O)NC2CCC(C(=O)O)CC2)cs1 (some centres not stated)
F

I'd appreciate the recorded outcome for COP(=O)(OC)C(O)c1ccc(Cl)cc1 (configuration not stated) from this test.
F

// param item: `CC1=C(CN)C2=C(C)C3(CC3)[C@@](C)(O)C(=O)C2=C1` ; yields the recorded call
F

// param item: `CC(C)=CCC/C(C)=C/C=N\N=C(/N)N[N+](=O)[O-]` ; yields the recorded call
F

Recorded test outcome, item `CCN(CC)CCOC(=O)C(OC(C)C)(c1ccccc1)c1ccccc1`
F

Could you please tell me the result logged for `COC(=O)[C@@H](C)C[C@H](Cc1ccc(F)cc1)NC(=O)c1csc([C@@H](C[C@H](C(C)C)N(C)C(=O)[C@@H](NC(=O)[C@H]2CCCCN2C)C(C)C)OC(C)=O)n1` in this assay?
F

Recorded test outcome, item `Cc1cc(-c2nc3cc(F)ccc3[se]2)cc(F)c1N`
F

Can you look up the reported call for `COC(=O)[C@@H](C)C[C@H](Cc1ccccc1)NC(=O)c1csc(CC[C@H](C(C)C)N(C)C(=O)[C@@H](NC(=O)[C@H]2CCCCN2C)C(C)C)n1` for me?
F

Dear all, I need the recorded test outcome for CCCCCCCC(=O)OCC(=O)[C@]1(O)Cc2c(O)c3c(c(O)c2[C@@H](OC2CC(N)C(O)C(C)O2)C1)C(=O)c1c(OC)cccc1C3=O (some centres not stated) , thank you.
T

Kindly provide the recorded test outcome for the following compound: NC(=O)c1c(Br)n(C2OC(CO)C(O)C2O)c2ncnc(N)c12 (configuration not stated)
T

What is the recorded call for this compound in the test? `Cc1ccccc1NC(=NCCCN1CC1)Nc1ccccc1C`
F

Short answer needed: outcome of this test for O=C1C2C(C(=O)[N]1[Hg][c]1cccs1)C1(Cl)C(Cl)=C(Cl)C2(Cl)C1(Cl)Cl (configuration not stated) ?
T

Could you check what this test reported for `O=C(CCl)c1ccc([N+](=O)[O-])o1` ?
T

I would be grateful if you could indicate the recorded call for `O=c1[nH]c2ccc([N+](=O)[O-])cc2c(=O)o1` .
F

Record lookup: outcome of this test for `C[C@@]12CC[C@@H](O)C[C@@H]1CC[C@H]1[C@H]2CC[C@@]2(C)[C@H](c3ccc(=O)oc3)CC[C@@]12O` ?
T

Returns: the outcome recorded for `N#C[S-].[Au+].c1ccc(CN2[CH-]N(Cc3ccccc3)C(c3ccccc3)=C2c2ccccc2)cc1` in this assay.
T

Dear colleague, could you share the recorded outcome for `COC(=O)[C@@H](C)C[C@H](Cc1ccccc1)NC(=O)c1nc([C@@H](C[C@H](C(C)C)N(C)C(=O)[C@@H](NC(=O)[C@H]2CC(=O)CCN2C)C(C)C)OC(C)=O)sc1C(C)C` when you have a moment?
T

// outcome(item) with item = CCN(CCO)C(Cc1ccccc1)c1ccccc1 (configuration not stated)
T

Which outcome was assigned to `N#C[Se]Cc1cc(-c2ccccc2)n(-c2ccc(S(N)(=O)=O)cc2)n1` in this test?
T

Hi, sorry to bother you, what did the test record for `CCC(C)(C)[C@H](NC(=O)[C@H]1CCCCN1C)C(=O)N(C)[C@H](C[C@@H](OC(C)=O)c1nc(C(=O)N[C@@H](Cc2ccccc2)C[C@H](C)C(=O)O)cs1)C(C)C` ?
T

GET /call?item= `O=C(Nc1ccc(Cl)cc1)Nc1nccs1` returns the recorded outcome of this test.
T

Record lookup: outcome of this test for COC1CC2c3ccccc3C1C(C)=[N+]2C (configuration not stated) ?
F
